Biological target: Chicken calmodulin (CaM) (chicken, UniProt P62149 1-149)
Assay: NMR titration
experimental.endpoint: Kd
Please answer using the number first and the unit second.

Reported Kd, binder Ac-TARRWGKSGPLSTRENIMVAFKGVWT-NH2 [human AQP4nt synthetic peptide (residues 6-31, two Cys modified to Ser)] : ____
3.4 µM
